Experiment: Quantitative High-Throughput drug screen in 47 multiple myeloma cell lines against the NCATS MIPE library collection: LP1_DSMZ cell viability assay (AID 1918982); further: nearly all actives have a fitted effect of over 35% in size
Conditions: LP1 myeloma viability, CellTiter-Glo ATP luminescence, 48 h; series mostly up to 45.8 µM
Records with an inconclusive call do not appear. Calls of active or inactive are those of the source. The call rests on the fitted dose curve; in most records, active means well fitted cell-killing curve with a large enough effect; inconclusive means small, poorly fitted or top-dose-only effect, or effect the other way; inactive means no such curve, though single readings can be large or run the other way.
Just give me one of these, please: 1.0 for active, 0.0 for inactive

Past entries and their recorded results:
CN[C@@H]1C[C@H]2O[C@@](C)([C@H]1OC)n1c3ccccc3c3c4c(c5c6ccccc6n2c5c31)C(=O)N[C@H]4O :: 1.0
O=C(C=CC#Cc1cccc(NS(=O)(=O)c2ccccc2)c1)NO :: 1.0
Cc1cc(-c2nnc3n2CCCCC3)c(C)n1-c1ccccc1 :: 0.0
COc1ccc(CCC(=O)c2c(O)cc(O[C@@H]3O[C@H](CO)[C@@H](O)[C@H](O)[C@@H]3O[C@@H]3O[C@@H](C)[C@H](O)[C@@H](O)[C@@H]3O)cc2O)cc1O :: 0.0
O=C(O)C=Cc1ccc(Cn2ccnc2)cc1 :: 0.0
Nc1nc(N)c2nc(-c3cccc(O)c3)c(-c3cccc(O)c3)nc2n1 :: 1.0

Ask | Hi team, can someone confirm the assay call for O=C1NCCc2[nH]c(-c3ccncc3)cc21 ?
Reply | 1.0

The reported numbers originate from PubChem BioAssay (NCATS).
